Origin of values: PubChem BioAssay

protocol.details: differential killing of epithelial or mesenchymal cells, primary screen, imaging, PC-3E GFP, TEM4-18 mCherry, co-culture (AID 1345086);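 also: cells exposed to compound for 72 h before imaging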
condition.context: imaging cell counts, measured here: mesenchymal TEM4-18 mCherry cell survival, at 1 µM
assay.readout: normalised cell number
Answers are plain numbers.

Before answering, review these 5 worked examples.
{"compound": "CCCNCC(O)COc1ccccc1C(=O)CCc1ccccc1 (configuration not stated)", "normalised cell number": 1.41}
{"compound": "O=C(O)CCCc1ccccc1", "normalised cell number": 1.11}
{"compound": "Cc1ccc(Cl)c(Nc2ccccc2C(=O)O)c1Cl", "normalised cell number": 0.9}
{"compound": "Fc1ccc([C@@H]2CCNC[C@H]2COc2ccc3c(c2)OCO3)cc1", "normalised cell number": 0.47}
{"compound": "COc1ccc2cc(CCC(C)=O)ccc2c1", "normalised cell number": 1.27}

Batch of 6 compounds: report normalised cell number for each.
1. CCc1nc(N)nc(N)c1-c1ccc(Cl)cc1
2. CCCc1nc2c(C)cc(-c3nc4ccccc4n3C)cc2n1Cc1ccc(-c2ccccc2C(=O)O)cc1
3. O=C1C(CCS(=O)c2ccccc2)C(=O)N(c2ccccc2)N1c1ccccc1 (configuration not stated)
4. CCCCc1oc2ccccc2c1C(=O)c1cc(I)c(OCCN(CC)CC)c(I)c1
5. CN(C)CCOC(c1ccc(Cl)cc1)c1ccccn1 (configuration not stated)
6. CCCNC(C)C(=O)Nc1ccccc1C (configuration not stated)

Reply:
1. 0.75
2. 0.8
3. 1.24
4. 1.1
5. 1.26
6. 1.32

Query: For the compound CN1CCN(CCCN2c3ccccc3Sc3ccc(C(F)(F)F)cc32)CC1 , give its reported normalised cell number.
Reply: 0.91
